# Tested on: SK-OV-3 ovarian
# assay_comment: NCI-60 one-dose screen, 48 h
# test_settings: 10 µM unless noted
Compounds without any hit were thinned out: in the full panel of roughly 83,000, 20% have a hit. Activity calls are given as the source filed them. How the source made its calls: active means growth percent below 10; inactive means the rest.
Allowed answers: active, inactive

compound	category
CSc1cccc([N+](=O)[O-])c1	inactive
O=C(Nc1cccnc1)c1ccc2ccc3ccc(C(=O)Nc4cccnc4)nc3c2n1	inactive

q: How was COc1ccc(CC(C#N)c2ccc(Cl)cc2)cc1 (stereo not given) classified in this test?
a: inactive

q: Each compound tested received a call. Report the one for `CN(C)Cc1ccc[nH]1` .
a: inactive

q: Dear colleague, could you share the recorded outcome for `CN(C)CCCNc1nc(-c2cccc(C(Cl)(Cl)Cl)c2)nc(C(Cl)(Cl)Cl)n1` when you have a moment?
a: inactive

q: Which outcome was entered for the compound `CCOc1cc(NC(=O)c2ccccc2)c(OCC)cc1N` in this test?
a: inactive

q: Kindly provide the recorded test outcome for the following compound: `c1ccc(-c2n[nH]c(-c3ccccn3)n2)nc1`
a: inactive

q: Could you please tell me the result logged for `Cn1cc(-c2noc(-c3cn(C)c4ncc(F)cc34)n2)c2ccccc21` in this assay?
a: active

q: # lookup: test call for `COc1cc(C)cc2oc3oc(=N)c(C(=O)c4ccccc4)cc3c(=O)c12`
a: inactive

q: Hey, what did the test say about C=CCCC1(C)NC(=O)NC1=O (stereo not given) ?
a: inactive

q: Check the results log: what was the call for `C=C(C)[C@@H]1CC[C@]2(C(=O)O)CC[C@]3(C)[C@H](CC[C@@H]4[C@@]5(C)C/C(=C/c6ccco6)C(=O)C(C)(C)[C@@H]5CC[C@]43C)[C@@H]12` ?
a: active

q: Query: recorded result category for `Cc1nc(Cl)cc(N(c2cc(Cl)nc(C)n2)c2ncc(C(=O)Nc3c(C)cccc3Cl)s2)n1` in this test
a: inactive

q: Hey, what did the test say about `O=[N+]([O-])c1cc(CCl)ccc1OCCBr` ?
a: inactive

q: Hi team, can someone confirm the assay call for `Nc1ccc(Cl)c([N+](=O)[O-])c1` ?
a: inactive

q: I'd appreciate the recorded outcome for `O=C(N=c1n(-c2ccccc2)nc2n1CCN2C1=NCCN1)c1ccc(Cl)cc1` from this test.
a: inactive

q: Check the results log: what was the call for `COc1cc(-c2nc(SCCC(C)C)nc(Nc3ccccc3)c2C#N)cc(OC)c1OC` ?
a: inactive
